Subject of test: human macrophage migration inhibitory factor (MIF) (human, UniProt P14174 2-115)
Sequence (P14174 2-115 limits assumed): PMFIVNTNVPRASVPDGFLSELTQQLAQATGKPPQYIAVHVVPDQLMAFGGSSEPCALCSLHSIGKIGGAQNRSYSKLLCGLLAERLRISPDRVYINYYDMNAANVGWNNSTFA
Assay: cell-based or functional assay
Reported property: % MIF PPT Activity (%)
Your answer should be a plain number; it is taken to be in %.

Documented % MIF PPT Activity of anti-MIF monoclonal antibody 22F11-6 (antibody, V domains shown, Mouse hybridoma antibody from a MIF knockout mouse, purified from ascites; also called Mab 22F11-6) VH: EVKLEESGGGLVQPGGSMKLSCAASGFTFGDAWMYWVRQSPEKGLEWVAEIRSKAHNHATYYAESVKGRFTISRDDSKSSVYLQMSSLRAEDTGIYYCTSHHYGSSWYFDVWGAGTTVTVSS VL: DIQMTQSPASLSASVGETVTITCRASENIYSYLTWFQQKQGKSPQLLVYDAKTLAEGVPSSFSGSGSGTQFSLKIISLQPEHFGSYYCQHHYGRPYTFGGGTKLEIKR : 65
